# Test system: S. aureus UAMS-1
# Procedure summary: Selleck library screen in presence of sub-inhibitory polymyxin B/trimethoprim
# Format: cell-based, Staphylococcus aureus
# Set-up: key: Growth (+); no growth (−)
# Particulars: drug 50 μM in presence of 1.2 μg ml^−1 polymyxin B/trimethoprim
Measure: S. aureus growth, 50 μM

>  <Compound>
CCn1cc(C(=O)O)c(=O)c2cc(F)c(N3CCNC(C)C3)c(F)c21 (stereo not shown)

>  <Meas value>
−

$$$$
>  <Compound>
CO[C@H]1/C=C/O[C@@]2(C)Oc3c(C)c(O)c4c(c3C2=O)C2=NC3(CCN(CC(C)C)CC3)NC2=C(NC(=O)/C(C)=C\C=C\[C@H](C)[C@H](O)[C@@H](C)[C@@H](O)[C@@H](C)[C@H](OC(C)=O)[C@@H]1C)C4=O

>  <Meas value>
−

$$$$
>  <Compound>
CO[C@H]1/C=C/O[C@@]2(C)Oc3c(C)c(O)c4c(O)c(c5c(nc6cc(C)ccn65)c4c3C2=O)NC(=O)/C(C)=C\C=C\[C@H](C)[C@H](O)[C@@H](C)[C@@H](O)[C@@H](C)[C@H](OC(C)=O)[C@@H]1C

>  <Meas value>
−

$$$$
>  <Compound>
O=C(O)c1cn(-c2ccc(F)cc2)c2cc(N3CCNCC3)c(F)cc2c1=O

>  <Meas value>
−

$$$$

* * *

# Test system: P. aeruginosa
# Procedure summary: MIC of clinical P. aeruginosa ocular isolates (antibiotic susceptibility profiles)
# Type: cell-based, Pseudomonas aeruginosa
# Particulars: Pseudomonas aeruginosa, P. aeruginosa ocular isolate RW01 (cornea); read-out: Minimum Inhibitory Concentration
Measure: MIC (µg/mL)
State the answer as a number, implicitly in µg/mL.

>  <Substance smiles>
CC1(C)S[C@@H]2[C@H](NC(=O)[C@H](N)c3ccccc3)C(=O)N2[C@H]1C(=O)O

>  <Units label>
µg/mL

>  <MIC>
50

$$$$
>  <Substance smiles>
CO/N=C(\C(=O)N[C@@H]1C(=O)N2C(C(=O)O)=C(CSc3nc(=O)c(=O)[nH]n3C)CS[C@H]12)c1csc(N)n1

>  <Units label>
µg/mL

>  <MIC>
13

$$$$
>  <Substance smiles>
COc1c(N2C[C@@H]3CCCN[C@@H]3C2)c(F)cc2c(=O)c(C(=O)O)cn(C3CC3)c12

>  <Units label>
µg/mL

>  <MIC>
0.25

$$$$

Now for a further molecule.
Looking for the measured MIC of NC[C@H]1O[C@H](O[C@H]2[C@H](O)[C@@H](O[C@H]3O[C@H](CO)[C@@H](O)[C@H](N)[C@H]3O)[C@H](N)C[C@@H]2N)[C@H](N)C[C@@H]1O , can you help?
0.24

* * *

# System: P. aeruginosa
# Procedure summary: MIC of clinical P. aeruginosa ocular isolates (antibiotic susceptibility profiles)
# Assay type: cell-based, Pseudomonas aeruginosa
# Particulars: Pseudomonas aeruginosa, P. aeruginosa ocular isolate RW06 (cornea); read-out: Minimum Inhibitory Concentration
Measure: MIC (mg/L)
State the answer as a number, implicitly in mg/L.

Observe how each entry below is paired with its result.
>  <Substance smiles>
NC[C@H]1O[C@H](O[C@H]2[C@H](O)[C@@H](O[C@H]3O[C@H](CO)[C@@H](O)[C@H](N)[C@H]3O)[C@H](N)C[C@@H]2N)[C@H](N)C[C@@H]1O

>  <Study system>
P. aeruginosa

>  <MIC / mg/L>
0.24

$$$$
>  <Substance smiles>
CO/N=C(\C(=O)N[C@@H]1C(=O)N2C(C(=O)O)=C(CSc3nc(=O)c(=O)[nH]n3C)CS[C@H]12)c1csc(N)n1

>  <Study system>
P. aeruginosa

>  <MIC / mg/L>
52

$$$$
>  <Substance smiles>
CC1(C)S[C@@H]2[C@H](NC(=O)[C@H](N)c3ccccc3)C(=O)N2[C@H]1C(=O)O

>  <Study system>
P. aeruginosa

>  <MIC / mg/L>
100

$$$$

Now for a further compound.
// fetch P. aeruginosa MIC for COc1c(N2C[C@@H]3CCCN[C@@H]3C2)c(F)cc2c(=O)c(C(=O)O)cn(C3CC3)c12
0.5

* * *

# Test system: P. aeruginosa
# Procedure summary: MIC of clinical P. aeruginosa ocular isolates (antibiotic susceptibility profiles)
# Type: cell-based, Pseudomonas aeruginosa
# Particulars: Pseudomonas aeruginosa, P. aeruginosa ocular isolate RW04 (conjunctiva); read-out: Minimum Inhibitory Concentration
# Method: A series of genotyping and biological assays were used as a preliminary means to evaluate the clonality of clinical P. aeruginosa isolates collected, as follows. […] Each isolate's ability to form biofilms was quantified. […] To quantify biofilm staining, plates were washed 3 times with H2O, stain was suspended in 30% glacial acetic acid and the optical density (OD600nm) of each well was determined using an automated plate reader, as previously described. […]
Measured MIC, listed per entry for reference.
State the answer as a number, implicitly in µg/mL.

>  <Substance smiles>
COc1c(N2C[C@@H]3CCCN[C@@H]3C2)c(F)cc2c(=O)c(C(=O)O)cn(C3CC3)c12

>  <Measure>
MIC

>  <Units label>
µg/mL

>  <Meas value>
0.25

$$$$

Looking for the measured MIC of NC[C@H]1O[C@H](O[C@H]2[C@H](O)[C@@H](O[C@H]3O[C@H](CO)[C@@H](O)[C@H](N)[C@H]3O)[C@H](N)C[C@@H]2N)[C@H](N)C[C@@H]1O , can you help?
0.48

Looking for the measured MIC of CC1(C)S[C@@H]2[C@H](NC(=O)[C@H](N)c3ccccc3)C(=O)N2[C@H]1C(=O)O , can you help?
50

Looking for the measured MIC of CO/N=C(\C(=O)N[C@@H]1C(=O)N2C(C(=O)O)=C(CSc3nc(=O)c(=O)[nH]n3C)CS[C@H]12)c1csc(N)n1 , can you help?
26

Values were extracted from patent US11096923B2.
